- Test system: Mycobacterium tuberculosis
- ASSAY_OVERVIEW: Antimicrobial activity against Mycobacterium tuberculosis H37Ra after 4 days by MTT assay
- Format: functional, organism-based
- CONDITION_SUMMARY: 96 h
PROPERTY_MEASURED: IC50

Below: 3 compounds and their reported IC50.
CC1=C[C@@H]2C[C@@H](C)CC[C@@H]2[C@@](C)(C(=O)C2=C(O)[C@@H](CO)NC2=O)[C@@H]1/C=C/C=C/C[C@@H](C)O	113 µM
CC1=C[C@H]2C[C@@H](C)CC[C@@H]2[C@@](C)(C(=O)C2=C(O)[C@@H](CO)NC2=O)[C@H]1/C=C/C=C/C[C@@H](C)O	56.4 µM
CO[C@H]1/C=C/O[C@@]2(C)Oc3c(C)c(O)c4c(O)c(c(/C=N/N5CCN(C)CC5)c(O)c4c3C2=O)NC(=O)/C(C)=C\C=C\[C@H](C)[C@H](O)[C@@H](C)[C@@H](O)[C@@H](C)[C@H](OC(C)=O)[C@@H]1C	0.152 µM

Now look at this entry.
Task: State the recorded IC50 for this entry: CC1=C[C@H]2C[C@@H](C)CC[C@@H]2[C@@](C)(C(=O)C2=C(O)[C@@H](CO)N(C)C2=O)[C@H]1/C=C/C=C/C[C@@H](C)O
Result: 26.3 µM
